Hello, the source for this data is paper PMC9482650, in case you need it.

# TGT: T1, SHANK1, Q9Y566
# T1 sequence (Q9Y566 658-767, limits assumed, looked up): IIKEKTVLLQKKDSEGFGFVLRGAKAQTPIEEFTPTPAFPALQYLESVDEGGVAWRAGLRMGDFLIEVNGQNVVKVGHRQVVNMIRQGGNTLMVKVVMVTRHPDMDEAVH
# TEST_PROTOCOL: holdup assay
# Parameters: key: below the threshold = too weak to quantify, mostly under pKd 3.1 to 4
# SETTINGS: plain residues with an end cap or a label only (N-terminal biotin on a linker: ado-ado)

- BINDER: "ILRKSTTTTV [PRR16, Q569H4]"
  pKd: "below the threshold"
- BINDER: "AQRARSPSDV [GPR12, P47775]"
  pKd: "below the threshold"
- BINDER: "IDESKKEWLI [CNTNAP2, Q9UHC6]"
  pKd: "below the threshold"
- BINDER: "NVYGIESVKI [GRIA2, P42262]"
  pKd: 3.9
